# target_desc: UniProt Q15910
# Sequence (Q15910 whole entry): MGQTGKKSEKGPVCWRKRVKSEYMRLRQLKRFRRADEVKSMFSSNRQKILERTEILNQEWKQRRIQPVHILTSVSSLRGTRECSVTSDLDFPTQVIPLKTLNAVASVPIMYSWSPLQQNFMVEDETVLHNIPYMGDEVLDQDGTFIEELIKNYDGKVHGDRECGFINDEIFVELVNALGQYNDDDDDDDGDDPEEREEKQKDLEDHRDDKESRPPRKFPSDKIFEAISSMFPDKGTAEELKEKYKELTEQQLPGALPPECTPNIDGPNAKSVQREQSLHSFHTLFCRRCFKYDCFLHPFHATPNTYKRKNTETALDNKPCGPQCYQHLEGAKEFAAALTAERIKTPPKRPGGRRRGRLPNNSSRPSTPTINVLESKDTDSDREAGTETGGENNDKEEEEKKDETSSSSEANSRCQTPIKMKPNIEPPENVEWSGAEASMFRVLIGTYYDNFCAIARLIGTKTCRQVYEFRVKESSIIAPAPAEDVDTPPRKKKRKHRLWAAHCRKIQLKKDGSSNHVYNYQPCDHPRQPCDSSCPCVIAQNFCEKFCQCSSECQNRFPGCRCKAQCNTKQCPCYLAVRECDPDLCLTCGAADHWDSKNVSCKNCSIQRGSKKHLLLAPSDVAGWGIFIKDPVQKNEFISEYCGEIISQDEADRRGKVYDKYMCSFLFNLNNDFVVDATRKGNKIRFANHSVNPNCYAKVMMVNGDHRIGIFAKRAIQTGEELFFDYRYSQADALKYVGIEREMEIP
# Sequence (O75530 whole entry partner): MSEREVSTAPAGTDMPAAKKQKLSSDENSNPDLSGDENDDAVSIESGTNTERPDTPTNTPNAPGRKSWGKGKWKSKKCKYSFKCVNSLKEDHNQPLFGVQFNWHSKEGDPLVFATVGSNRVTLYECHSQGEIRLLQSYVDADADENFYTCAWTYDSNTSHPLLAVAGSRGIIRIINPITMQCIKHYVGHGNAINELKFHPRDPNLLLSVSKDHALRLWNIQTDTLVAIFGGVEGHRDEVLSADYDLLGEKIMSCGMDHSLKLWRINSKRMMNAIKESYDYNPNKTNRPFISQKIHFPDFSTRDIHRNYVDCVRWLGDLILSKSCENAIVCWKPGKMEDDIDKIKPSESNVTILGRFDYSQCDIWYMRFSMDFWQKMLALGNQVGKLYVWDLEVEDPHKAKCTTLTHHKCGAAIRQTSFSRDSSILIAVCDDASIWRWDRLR
# Sequence (Q15022 whole entry partner): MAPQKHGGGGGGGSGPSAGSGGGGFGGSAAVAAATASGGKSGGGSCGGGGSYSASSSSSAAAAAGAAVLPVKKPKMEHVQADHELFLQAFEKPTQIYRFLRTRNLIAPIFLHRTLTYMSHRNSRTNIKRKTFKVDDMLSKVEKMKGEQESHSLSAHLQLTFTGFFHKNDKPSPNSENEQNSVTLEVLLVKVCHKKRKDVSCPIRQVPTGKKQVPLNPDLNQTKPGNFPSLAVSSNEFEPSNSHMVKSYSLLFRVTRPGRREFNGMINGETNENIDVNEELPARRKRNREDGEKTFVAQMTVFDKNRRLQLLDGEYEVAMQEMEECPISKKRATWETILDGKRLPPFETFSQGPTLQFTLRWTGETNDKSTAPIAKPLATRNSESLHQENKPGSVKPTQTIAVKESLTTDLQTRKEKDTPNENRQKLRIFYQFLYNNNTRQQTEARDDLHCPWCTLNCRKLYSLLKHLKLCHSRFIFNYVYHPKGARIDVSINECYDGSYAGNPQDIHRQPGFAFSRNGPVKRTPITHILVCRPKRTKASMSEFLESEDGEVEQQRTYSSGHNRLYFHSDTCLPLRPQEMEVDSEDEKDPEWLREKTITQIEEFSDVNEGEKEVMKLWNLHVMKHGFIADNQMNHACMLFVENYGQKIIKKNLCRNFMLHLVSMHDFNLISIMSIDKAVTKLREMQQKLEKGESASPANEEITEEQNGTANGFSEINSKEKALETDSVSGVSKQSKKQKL
# Sequence (Q09028 whole entry partner): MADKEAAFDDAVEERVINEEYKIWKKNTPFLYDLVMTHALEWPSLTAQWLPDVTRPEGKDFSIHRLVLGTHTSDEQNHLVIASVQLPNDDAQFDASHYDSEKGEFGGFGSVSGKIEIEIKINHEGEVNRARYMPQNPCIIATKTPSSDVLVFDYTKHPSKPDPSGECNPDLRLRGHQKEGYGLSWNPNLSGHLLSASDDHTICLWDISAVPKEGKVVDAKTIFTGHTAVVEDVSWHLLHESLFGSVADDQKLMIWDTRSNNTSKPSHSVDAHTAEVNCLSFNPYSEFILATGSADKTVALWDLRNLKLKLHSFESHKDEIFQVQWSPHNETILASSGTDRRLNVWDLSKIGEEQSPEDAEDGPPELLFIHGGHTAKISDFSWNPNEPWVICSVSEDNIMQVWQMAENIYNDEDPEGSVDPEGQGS
# assay_protocol: PRC2 enzyme assay on peptide substrate, wild-type EZH2
# Type: biochemical
# condition: wild-type PRC2, H3K27me0 peptide substrate
Catalogue of IC50 readings, one per entry.
Kindly answer with a numeric value in µM, unit omitted.

| compound | unit_descriptor | recorded_number |
| --- | --- | --- |
| CCC(C)n1cc(C)c2c(C(=O)NCc3c(OC)nn(C)c3C)cc(-c3ccc(N4CCNCC4)nc3)cc21 (stereo not shown) [Compound 3] | µM | 4.33 |

Challenge: // fetch UniProt Q15910 IC50 for CCC(C)n1cc(C)c2c(C(=O)NCc3c(C)n(C)[nH]c3=O)cc(-c3ccc(N4CCNCC4)nc3)cc21 (stereo not shown) [Compound 4]
Response given: 5.63
